Assign kon to each entry below.
Target: T1, His-tagged human HtrA1 protease domain (human, UniProt Q92743 161-367)
T1 construct: His-tagged protease domain; also called huHtrA1-PD-His; huHtrA1-PD
T1 sequence (Q92743 other isoform, or with tags, fused parts or gaps limits assumed): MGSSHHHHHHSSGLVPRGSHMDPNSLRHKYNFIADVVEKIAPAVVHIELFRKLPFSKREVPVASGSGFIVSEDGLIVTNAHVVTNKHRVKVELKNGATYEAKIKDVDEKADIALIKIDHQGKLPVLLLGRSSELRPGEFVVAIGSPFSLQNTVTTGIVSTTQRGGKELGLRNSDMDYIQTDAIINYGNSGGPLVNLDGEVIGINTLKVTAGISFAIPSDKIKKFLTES
Experiment: BIACORE T200 SPR; Fab analyte over huHtrA1-PD-His captured by anti-His antibody
Numbers only, in M⁻¹ s⁻¹.

Known kon results, listed for orientation:
{"binder": "h15H6.v2.APEG Fab (Fab, name in Kabat numbering, V domains shown, also called h15H6.v3; LC-N94A LC-P95 HC-D55E HC-G56) VH: EVQLVQSGAEVKKPGASVKVSCKASGYTFTDSEMHWVRQAPGQGLEWIGGVDPETEGAAYNQKFKGRATITRDTSTSTAYLELSSLRSEDTAVYYCTRGYDYDYALDYWGQGTLVTVSS VL: DIQMTQSPSSLSASVGDRVTITCRASSSVNFIHWYQQKPGKAPKPLISATSNLASGVPSRFSGSGSGTDFTLTISSLQPEDFATYYCQQWSSAPWTFGQGTKVEIK", "units-label": "M⁻¹ s⁻¹", "kon": 315000}
{"binder": "APEG.LC347.HC13 (Fab, V domains shown, single member of the group m82) VH: EVQLVQSGAEVKKPGASVKVSCKASGYKFKDSEMHWVRQAPGQGLEWIGGVDPETEGAAYNQKFKGRATITRDTSTSTAYLELSSLRSEDTAVYYCTRGYDYDYALDYWGQGTLVTVSS VL: DIQMTQSPSSLSASVGDRVTITCRASSSVEFIHWYQQKPGKAPKPLISATSHLASGVPSRFSGSGSGTDFTLTISSLQPEDFATYYCQQWYSAPWTFGQGTKVEIK", "units-label": "M⁻¹ s⁻¹", "kon": 371000}

Now for the binder whose kon we want.
Prompt: Using the record for APEG.LC3.HC2 (Fab, V domains shown) VH: EVQLVQSGAEVKKPGASVKVSCKASGYTFRDSEMHWVRQAPGQGLEWIGGVDPETEGAAYNQKFKGRATITRDTSTSTAYLELSSLRSEDTAVYYCTRGYDYDYALDYWGQGTLVTVSS VL: DIQMTQSPSSLSASVGDRVTITCRASSSVEFIHWYQQKPGKAPKPLISATSNLASGVPSRFSGSGSGTDFTLTISSLQPEDFATYYCQQWSSAPWTFGQGTKVEIK , report its kon.
Completion: 350000
